The measured values listed here are drawn from PubChem BioAssay AID1508600.

- Procedure details: Components of the Cytosolic LPS Sensing Pathway: Gene Identification via Genome-wide siRNA Screen;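 also: robust z of the log signal after scaling to non-targeting control siRNA wells of the plate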
- Run conditions: RAW264.7 macrophages, IL-1a HTRF, actives lie on both sides, screened at 100 nM (by protocol), cells primed 5 h with Pam3CSK4 first
The campaign covered roughly 53,000 sequences. About 3,700 (7%) were called active. Many of the other results were omitted from the sample, so actives are more common in it than they were.

>  <Residue sequence>
GGUACAUGAUCAAUUUAGATT against Tspyl4

>  <z-score>
0.726 (inactive)

$$$$
>  <Residue sequence>
CCUAGUAGCCGAGAAACAUTT against Olfr1137

>  <z-score>
-0.705 (inactive)

$$$$
>  <Residue sequence>
GCACUACCAAGGCGAUAACTT against Tspan18

>  <z-score>
-0.624 (inactive)

$$$$
>  <Residue sequence>
GGUGACAUGGAUGUAGCAATT against Fcsk

>  <z-score>
1.18 (inactive)

$$$$
>  <Residue sequence>
GGAAGAACCACCACAAACUTT against Cstdc2

>  <z-score>
-0.0281 (inactive)

$$$$
>  <Residue sequence>
GGACAGUGUCUAGAUAUUGTT against Fbln5

>  <z-score>
-1.18 (inactive)

$$$$
>  <Residue sequence>
GGAUUAGUGCAGGAAUCAATT against Rel

>  <z-score>
0.922 (inactive)

$$$$
>  <Residue sequence>
GGUAUUCCUCUAGAUCAGATT against Dysf

>  <z-score>
0.627 (inactive)

$$$$
>  <Residue sequence>
GGAGUCUUGCUCUAUAUAATT against Arpc5

>  <z-score>
1.26 (inactive)

$$$$

---

- Procedure details: Components of the Cytosolic LPS Sensing Pathway: Gene Identification via Genome-wide siRNA Screen;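 also: robust z of the log signal after scaling to non-targeting control siRNA wells of the plate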
- Run conditions: RAW264.7 macrophages, IL-1a HTRF, actives lie on both sides, screened at 100 nM (by protocol), cells primed 5 h with Pam3CSK4 first
Hit rate of the full screen: of about 53,000 sequences, about 3,700 (7%) were called active. The sample as a whole holds a higher share of actives than the screen did.
Assign yes to entries whose z-score meets or exceeds 0.4; assign no to the rest.

>  <Residue sequence>
GGCAGUCAGCUAAUGCUUATT against Pros1

>  <Group>
no

$$$$
>  <Residue sequence>
GGUCCUCAAGAUCUUUGUGTT against Extl1

>  <Group>
no

$$$$
>  <Residue sequence>
GGCUGCUUUACUGAAGUAATT against C2cd6

>  <Group>
yes

$$$$
>  <Residue sequence>
GCUUCCUAACCAGGUUUGATT against 4430402I18Rik

>  <Group>
yes

$$$$
>  <Residue sequence>
GGCUUGAUGGGCUUUUUGCTT against Ndufb8

>  <Group>
no

$$$$
>  <Residue sequence>
GGUGUCGAGAAGCCUCAAATT against Arhgap24

>  <Group>
no

$$$$
>  <Residue sequence>
GGGUCCAAAAGAAAAGUGUTT against Zc2hc1c

>  <Group>
yes

$$$$
>  <Residue sequence>
GGAGAGGAUGCAUGUAAAATT against Fbxl22

>  <Group>
no

$$$$
>  <Residue sequence>
GGUUUUUAGCCUGAGUGAGTT against Olfr688

>  <Group>
no

$$$$
>  <Residue sequence>
GCAACUGAGAGAUGUCAUCTT against Gbp6

>  <Group>
no

$$$$
>  <Residue sequence>
CCAGAAACCAAUCUUUCUUTT against Serpinb1a

>  <Group>
no

$$$$
>  <Residue sequence>
GGGUUCUGGGAAGGUAUAUTT against Olfr705

>  <Group>
no

$$$$
>  <Residue sequence>
GGAAAGAAGAACCAAGCUCTT against Med6

>  <Group>
no

$$$$
>  <Residue sequence>
GGGAGACGGCGAGGUUUUATT against Arl6ip4

>  <Group>
yes

$$$$
>  <Residue sequence>
GGAUUAAGUGGUCAAAUGATT against Ugt2b36

>  <Group>
no

$$$$
>  <Residue sequence>
GCACAUGUAUCCAUGCUUCTT against Kcnj11

>  <Group>
no

$$$$
>  <Residue sequence>
GGAGAAUGACUACUAUACUTT against Stt3a

>  <Group>
no

$$$$
>  <Residue sequence>
CGCCUACUGCUUCAGGAUATT against Cgrrf1

>  <Group>
yes

$$$$
>  <Residue sequence>
GGAACACGAAUCAUUUAUGTT against Eif4ebp2

>  <Group>
no

$$$$
>  <Residue sequence>
GGAAUGUAAGAACCCUUGCTT against Adam19

>  <Group>
yes

$$$$
>  <Residue sequence>
GCAGAGACUACUUAGCAAGTT against Adprm

>  <Group>
yes

$$$$
>  <Residue sequence>
GGUUAUCGGUUGUACAUAUTT against Chd3

>  <Group>
yes

$$$$
>  <Residue sequence>
UUGUCAUUCACUUGAUGAATT against H2bu2

>  <Group>
no

$$$$
>  <Residue sequence>
GGAGCUGAGCAGUGAUGAATT against Snx29

>  <Group>
no

$$$$
>  <Residue sequence>
GGUCAUUGCAUCUGACAAGTT against Pcdha2

>  <Group>
no

$$$$
>  <Residue sequence>
GCUCCACAAGAUGUAAAGGTT against Il21

>  <Group>
no

$$$$
